- measurement.target: Tyrosine-protein kinase Lyn (Homo sapiens);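 also: mean percent inhibition of the LYN A splice variant of the kinase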
- conditions: at 1 µM
- Description: GSK_PKIS: LYN A (splice variant) mean inhibition at 1 uM [Nanosyn]
Please go through the items and note down their inhibition.
Give bare numbers, in %.

Below are worked cases with known answers.
In [3]: df
Out[3]:
                                smiles_data  number
0  COc1cc2ncn(-c3cc(OCc4ccccc4C(F)(F)F)c(C(=O)N(C)C)s3)c2cc1OC    10.9
1  CC(C)COC(=O)c1ccc2c(c1)/C(=C/Nc1ccc(S(N)(=O)=O)cc1)C(=O)N2    24.3
2  CCNC(=O)O[C@H]1CN[C@H](C#Cc2cc3ncnc(Nc4ccc(OCc5cccc(F)c5)c(Cl)c4)c3s2)C1    3.68
3  Fc1ccc(-c2cc(-c3c[nH]nc3-c3ccccn3)ccn2)cc1    8.49
4  CN1CCC(n2cnc(-c3ccc(F)cc3)c2-c2ccnc(Nc3ccccc3)n2)CC1    23.3

# per-item lookup of inhibition; items listed below
1. Fc1ccc(-c2nn3ncccc3c2-c2ccnc(Nc3ccc4c(c3)OCCO4)n2)cc1
2. NS(=O)(=O)c1ccc(N/N=C2\C(=O)Nc3ccc4ncccc4c32)cc1
3. COc1cc(Nc2nccc(Nc3ccc4c(C)n[nH]c4c3)n2)cc(OC)c1OC

Found:
78.8
44.3
87.4

Please look at the items below and tell me inhibition for each one, in order.
1. CCn1cc(-c2ccnc3[nH]ccc23)c(-c2cccc(NC(=O)Nc3ccc(OCc4ccccc4)cc3)c2)n1
2. Cc1cccc(Nc2ncc(-c3ccccc3)o2)c1

Found:
1. 19.4
2. 8.28

====

- Test system: Proto-oncogene tyrosine-protein kinase receptor Ret (Homo sapiens), P07949 [Y791F]
- Sequence (P07949 whole entry Y791F): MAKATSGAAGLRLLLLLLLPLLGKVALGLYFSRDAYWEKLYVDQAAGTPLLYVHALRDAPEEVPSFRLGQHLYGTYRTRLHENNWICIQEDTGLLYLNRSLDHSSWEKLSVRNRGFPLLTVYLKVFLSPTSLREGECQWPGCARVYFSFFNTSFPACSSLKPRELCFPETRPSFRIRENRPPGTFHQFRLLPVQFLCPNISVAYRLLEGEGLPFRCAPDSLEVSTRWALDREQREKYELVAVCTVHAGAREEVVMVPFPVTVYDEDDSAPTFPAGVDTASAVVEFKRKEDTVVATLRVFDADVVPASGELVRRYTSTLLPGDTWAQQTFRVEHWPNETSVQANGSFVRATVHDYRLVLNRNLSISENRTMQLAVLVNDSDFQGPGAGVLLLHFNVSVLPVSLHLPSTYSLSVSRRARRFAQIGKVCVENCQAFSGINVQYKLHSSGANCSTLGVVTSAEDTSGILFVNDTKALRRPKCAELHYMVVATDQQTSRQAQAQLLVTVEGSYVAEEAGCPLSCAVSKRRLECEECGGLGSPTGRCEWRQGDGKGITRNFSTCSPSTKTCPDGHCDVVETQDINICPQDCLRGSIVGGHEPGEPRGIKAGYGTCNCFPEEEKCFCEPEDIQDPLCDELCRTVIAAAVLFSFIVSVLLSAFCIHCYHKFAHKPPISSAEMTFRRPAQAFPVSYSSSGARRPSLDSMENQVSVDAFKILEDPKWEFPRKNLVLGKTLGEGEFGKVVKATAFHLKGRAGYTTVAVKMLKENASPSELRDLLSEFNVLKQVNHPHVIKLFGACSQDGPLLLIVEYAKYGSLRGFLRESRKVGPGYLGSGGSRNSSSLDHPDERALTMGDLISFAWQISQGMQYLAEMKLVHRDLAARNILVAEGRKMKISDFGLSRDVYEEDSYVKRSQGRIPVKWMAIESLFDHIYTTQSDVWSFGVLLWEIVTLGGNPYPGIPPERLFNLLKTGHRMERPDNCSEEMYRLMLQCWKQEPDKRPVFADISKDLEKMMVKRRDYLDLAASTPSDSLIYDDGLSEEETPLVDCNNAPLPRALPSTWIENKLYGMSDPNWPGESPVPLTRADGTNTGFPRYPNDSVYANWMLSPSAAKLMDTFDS
- conditions: at 1 µM
Threshold rule: inhibition greater than or equal to 20% is YES; below that, NO.

                                   compound  cat
0  COc1ccc2[nH]c3c4[nH]c5ccc(OC)cc5c4c4c(c3c2c1)C(=O)NC4=O  YES
1  O=C(Nc1n[nH]c2cc(-c3ccc(F)cc3)ccc12)C1CC1   NO
2  CN1CCC(n2cnc(-c3ccc(F)cc3)c2-c2ccnc(N)n2)CC1  YES
3  Fc1cccc(COc2ccc(Nc3ncnc4sc(-c5ccco5)cc34)cc2Cl)c1   NO
4  CC(C)COC(=O)c1ccc2c(c1)/C(=C/Nc1ccc(S(N)(=O)=O)cc1)C(=O)N2  YES

Lookup: Check this compound for inhibition at or above 20%: CCCN1CCC(c2ccc(Nc3nc(Nc4cc(F)ccc4C(N)=O)c4cc[nH]c4n3)c(OC)c2)CC1
Found: YES

Lookup: Textbook exercise: given the entry c1cc(-c2cnn3nc(N4CCOCC4)ccc23)nc(NC2CC2)n1 , state whether its inhibition is greater than or equal to 20%.
Found: NO

Lookup: Answer whether inhibition of COc1cc2ncn(-c3cc(OCc4ccccc4C(F)(F)F)c(C(=O)N(C)C)s3)c2cc1OC is greater than or equal to 20%.
Found: YES

Lookup: Decide: is the reported value of inhibition for Cc1cccc(Nc2ncc(-c3ccccc3)o2)c1 equal to or greater than 20%?
Found: NO

Lookup: Tell me whether inhibition is at least 20% here: CC1=C(C(=O)Nc2cc(Cl)c3[nH]ncc3c2)C(c2ccc(C(F)(F)F)cc2)CC(=O)N1 (stereo not given)
Found: NO

====

- measurement.target: Mitogen-activated protein kinase kinase kinase kinase 4 (Homo sapiens) (UniProt O95819)
- Sequence (O95819 2-1239 limits assumed): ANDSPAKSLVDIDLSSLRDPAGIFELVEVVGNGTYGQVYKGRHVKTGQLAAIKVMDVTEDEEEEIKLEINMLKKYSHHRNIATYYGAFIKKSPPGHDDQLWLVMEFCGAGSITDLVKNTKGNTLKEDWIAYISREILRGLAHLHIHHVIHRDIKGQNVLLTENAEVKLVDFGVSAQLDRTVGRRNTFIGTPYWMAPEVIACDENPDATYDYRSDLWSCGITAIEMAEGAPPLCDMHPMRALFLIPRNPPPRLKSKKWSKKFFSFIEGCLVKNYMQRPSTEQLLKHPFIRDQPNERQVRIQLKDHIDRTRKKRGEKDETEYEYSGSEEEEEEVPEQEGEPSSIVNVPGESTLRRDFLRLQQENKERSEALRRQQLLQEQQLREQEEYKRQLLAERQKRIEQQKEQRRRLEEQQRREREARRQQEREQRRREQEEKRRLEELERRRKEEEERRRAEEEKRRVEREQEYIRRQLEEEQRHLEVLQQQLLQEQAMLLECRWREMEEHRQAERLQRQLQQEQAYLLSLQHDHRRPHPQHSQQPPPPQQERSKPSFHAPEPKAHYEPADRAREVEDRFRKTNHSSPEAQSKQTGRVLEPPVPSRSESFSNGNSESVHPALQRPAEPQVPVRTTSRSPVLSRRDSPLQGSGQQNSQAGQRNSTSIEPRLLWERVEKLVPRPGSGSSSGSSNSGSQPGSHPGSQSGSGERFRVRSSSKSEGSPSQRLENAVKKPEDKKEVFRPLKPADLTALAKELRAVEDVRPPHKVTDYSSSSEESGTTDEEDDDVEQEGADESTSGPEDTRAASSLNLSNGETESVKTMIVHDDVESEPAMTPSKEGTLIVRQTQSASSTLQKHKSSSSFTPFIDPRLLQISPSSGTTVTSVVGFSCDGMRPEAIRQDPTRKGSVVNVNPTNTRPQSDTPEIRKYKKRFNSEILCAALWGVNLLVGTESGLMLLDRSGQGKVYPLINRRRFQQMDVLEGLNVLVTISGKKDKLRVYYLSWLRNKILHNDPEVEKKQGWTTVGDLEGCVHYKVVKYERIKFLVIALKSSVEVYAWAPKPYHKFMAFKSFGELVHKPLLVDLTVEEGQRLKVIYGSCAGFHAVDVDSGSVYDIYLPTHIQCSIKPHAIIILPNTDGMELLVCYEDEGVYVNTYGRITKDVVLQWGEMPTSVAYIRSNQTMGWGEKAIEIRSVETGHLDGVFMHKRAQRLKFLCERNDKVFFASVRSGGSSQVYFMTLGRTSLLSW
- conditions: at 0.1 µM
- Description: GSK_PKIS: MAP4K4 mean inhibition at 0.1 uM [Nanosyn]
Task for the reader: assign each of the following compounds its reported inhibition.
Give bare numbers, in %.

Consider the following illustrative entries.
>>> df
                                   compound                        measurement_target  number
0  COc1ccc(CNC(=O)c2ccc(-c3cc(-c4nnc(C)o4)ccc3C)cc2)cc1  Mitogen-activated protein kinase kinase kinase kinase 4 (Homo sapiens) (UniProt O95819)    3.14
1   NS(=O)(=O)c1ccc(Nc2ncc(-c3ccccc3)o2)cc1  Mitogen-activated protein kinase kinase kinase kinase 4 (Homo sapiens) (UniProt O95819)    12.4
2  c1cc(-c2cnn3nc(N4CCOCC4)ccc23)nc(NC2CC2)n1  Mitogen-activated protein kinase kinase kinase kinase 4 (Homo sapiens) (UniProt O95819)    6.38
3  NC(=O)c1sc(-n2cnc3ccc(C(F)(F)F)cc32)cc1OCc1ccccc1Br  Mitogen-activated protein kinase kinase kinase kinase 4 (Homo sapiens) (UniProt O95819)    4.62
4  CC1=C(C(=O)Nc2cc(Cl)c3[nH]ncc3c2)C(c2ccc(C(F)(F)F)cc2)CC(=O)N1 (stereo not given)  Mitogen-activated protein kinase kinase kinase kinase 4 (Homo sapiens) (UniProt O95819)    2.89

Please go through the list and note inhibition for each compound.
1. COc1ccc2[nH]c3c4[nH]c5ccc(OC)cc5c4c4c(c3c2c1)C(=O)NC4=O
2. NS(=O)(=O)c1ccc(N/N=C2\C(=O)Nc3ccc4ncccc4c32)cc1
3. CN(C)CCOc1ccc(-c2nc(-c3ccncc3)c(-c3ccc4c(c3)CC/C4=N\O)[nH]2)cc1
4. CN1CCC(n2cnc(-c3ccc(F)cc3)c2-c2ccnc(Nc3ccccc3)n2)CC1
5. c1ccc(-c2nc3n(c2-c2ccc4c(c2)OCO4)CCC3)nc1

Found:
1. 84.6
2. 44.4
3. 9.59
4. 4.88
5. 2.84

====

- measurement.target: Serine/threonine-protein kinase Nek9 (Homo sapiens);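 also: each value is a mean percent inhibition of NEK9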
- Sequence (whole entry): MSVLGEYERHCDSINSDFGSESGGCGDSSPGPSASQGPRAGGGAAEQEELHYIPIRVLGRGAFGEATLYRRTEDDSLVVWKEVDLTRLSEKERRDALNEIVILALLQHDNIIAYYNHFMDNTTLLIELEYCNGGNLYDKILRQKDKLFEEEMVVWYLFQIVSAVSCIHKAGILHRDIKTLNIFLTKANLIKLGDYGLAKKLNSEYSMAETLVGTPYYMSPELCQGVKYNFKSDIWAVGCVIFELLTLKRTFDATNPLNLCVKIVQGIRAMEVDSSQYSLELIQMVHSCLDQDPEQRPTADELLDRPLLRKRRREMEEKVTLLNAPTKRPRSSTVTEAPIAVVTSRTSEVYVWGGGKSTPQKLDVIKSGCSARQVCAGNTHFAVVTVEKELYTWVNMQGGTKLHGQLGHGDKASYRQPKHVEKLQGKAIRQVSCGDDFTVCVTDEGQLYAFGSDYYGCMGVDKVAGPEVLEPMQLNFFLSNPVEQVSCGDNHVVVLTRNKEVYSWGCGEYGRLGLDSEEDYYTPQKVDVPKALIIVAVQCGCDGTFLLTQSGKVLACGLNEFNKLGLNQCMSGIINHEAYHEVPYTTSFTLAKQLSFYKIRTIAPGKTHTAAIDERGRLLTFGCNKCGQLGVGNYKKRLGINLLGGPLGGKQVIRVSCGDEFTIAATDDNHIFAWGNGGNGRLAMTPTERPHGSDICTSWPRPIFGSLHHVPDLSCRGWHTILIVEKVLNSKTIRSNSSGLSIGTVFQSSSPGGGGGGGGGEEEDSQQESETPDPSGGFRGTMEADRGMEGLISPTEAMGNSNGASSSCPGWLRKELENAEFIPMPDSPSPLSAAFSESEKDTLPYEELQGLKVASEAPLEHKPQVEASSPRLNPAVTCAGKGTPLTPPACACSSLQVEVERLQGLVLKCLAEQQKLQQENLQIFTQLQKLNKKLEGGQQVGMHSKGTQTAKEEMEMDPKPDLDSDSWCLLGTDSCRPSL
- conditions: at 1 µM
For each record, write down the corresponding inhibition.
Numbers only, in %.

In [3]: df
Out[3]:
                                   compound  number
0  NS(=O)(=O)c1ccc(N/N=C2\C(=O)Nc3ccc4ncccc4c32)cc1      41
1  O=S(=O)(CCNCc1ccc(-c2ccc3ncnc(Nc4ccc(OCc5cccc(F)c5)c(Cl)c4)c3c2)o1)c1ccccc1    4.64
2            Cc1cccc(Nc2ncc(-c3ccccc3)o2)c1    4.73

Look at each compound and report its inhibition.
1. Cc1ccc2c(-c3ccnc(Nc4ccccc4)n3)c(-c3ccc(F)cc3)nn2n1
2. Fc1ccc(-c2nn3ccccc3c2-c2ccncc2)cc1
3. CNC(=O)c1cccc(C#Cc2cncnc2Nc2ccc(OCc3cccc(F)c3)c(Cl)c2)c1
4. COc1cc(N2CCN(C(C)C)CC2)ccc1Nc1nc(Nc2ccc(F)cc2C(N)=O)c2cc[nH]c2n1

Found:
5.94
1.86
4.28
13.5

Hey, can you go through the list below and give me inhibition for every item?
1. COc1ccc2[nH]c3c4[nH]c5ccc(OC)cc5c4c4c(c3c2c1)C(=O)NC4=O
2. Fc1cccc(COc2ccc(Nc3ncnc4sc(-c5ccco5)cc34)cc2Cl)c1
3. COc1ccc(-c2cc(-c3c[nH]nc3-c3ccccn3)ccn2)cc1
4. CCOc1ccc2c(-c3ccnc(Nc4cccc(C(F)(F)F)c4)n3)cnn2n1
5. Cc1ccc(O)cc1Nc1ccnc2cc(-c3ccccn3)ccc12
6. COC(=O)c1sc(-n2cnc3cc(OC)c(OC)cc32)cc1OCc1ccccc1C(F)(F)F

Found:
1: 2.1; 2: 8.43; 3: 9.65; 4: 4.9; 5: -1.26; 6: 7

Hi team, please reply with inhibition for each item in this list.
1. O=C(Nc1n[nH]c2cc(-c3ccc(F)cc3)ccc12)C1CC1
2. CCCN(CCS(C)(=O)=O)Cc1ccc(-c2ccc3ncnc(Nc4ccc(OCc5cccc(F)c5)c(Cl)c4)c3c2)o1
3. CC1=C(C(=O)Nc2cc(Cl)c3[nH]ncc3c2)C(c2ccc(C(F)(F)F)cc2)CC(=O)N1 (stereo not drawn)
4. COC(=O)Nc1nc2ccc(S(=O)(=O)c3ccc(NC(=O)Nc4cc(C(F)(F)F)ccc4F)cc3)cc2[nH]1
5. CN1CCC(n2cnc(-c3ccc(F)cc3)c2-c2ccnc(N)n2)CC1

Found:
6.43
4.13
8.4
7.16
11.4
